- assay_overview: Partition coefficient (logP)
- Type: physicochemical
- condition_set: octanol/water
logP: recorded values
measure_name: logP

> print(dat)
                                   compound  measure.name  assay.result
1  C=CCN1CCN(CC(C)C)C(C2=NCCN2)C1 (stereo unspecified)          logP           1.3
2  CN1CCN(Cc2ccc(Cl)cc2Cl)C(C2=NCCN2)C1 (stereo unspecified)          logP          2.21
3  CC(C)CN1CCN(CC(C)C)C(C2=NCCN2)C1 (stereo unspecified)          logP          2.18
4  CC(C)N1CCN(C(C)C)C(C2=NCCN2)C1 (stereo unspecified)          logP          1.15
5  C=C(C)CN1CCN(CC(=C)C)C(C2=NCCN2)C1 (stereo unspecified)          logP          1.45
6  CCC(C)CN1CCN(CC(C)CC)C(C2=NCCN2)C1 (stereo unspecified)          logP          3.22
